Measured IC50 of individual entries
- MEASURED_TARGET: T1, VEGF-C C137S
- T1 construct: also called hVEGF-C C137S; human VEGF-C C137S
- T1 VEGF-C: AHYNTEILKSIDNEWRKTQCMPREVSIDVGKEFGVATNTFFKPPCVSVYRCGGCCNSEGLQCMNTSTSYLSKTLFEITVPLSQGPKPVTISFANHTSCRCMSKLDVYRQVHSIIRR
- RUN_DESCRIPTION: phage competition ELISA as in paragraph 556 with human VEGF-C C137S as antigen: phage-displayed clone, soluble antigen varied, anti-M13-HRP, OD450
Number in nM, nothing else.

Use these answered entries as a reference point.
VC1.12.8 (antibody, V domains shown, also called clone VC1.12.8) VH: EVQLVESGGGLVQPGGSLRLSCAASGFTFSDSDIHWVRQAPGKGLEWVAWISPYVGFTDYADSVKGRFTISADTSKNTAYLQMNSLRAEDTAVYYCARLFDVIFDYWGQGTLVTVSS VL: DIQMTQSPSSLSASVGDRVTITCRASQDVSTAVAWYQQKPGKAPKLLIYSASFLYSGVPSRFSGSGSGTDFTLTISSLQPEDFATYYCQQSYITPPTFGQGTKVEIK	13.7
VC1.12.1 (antibody, V domains shown, also called clone VC1.12.1) VH: EVQLVESGGGLVQPGGSLRLSCAASGFTFSDSDIHWVRQAPGKGLEWVAWISPYVGFTDYADSVKGRFTISADTSKNTAYLQMNSLRAEDTAVYYCARLFDVIFDYWGQGTLVTVSS VL: DIQMTQSPSSLSASVGDRVTITCRASQDVSTAVAWYQQKPGKAPKLLIYSASFLYSGVPSRFSGSGSGTDFTLTISSLQPEDFATYYCQQSYNIPPTFGQGTKVEIK	7.29
VC1.12.5 (antibody, V domains shown, also called clone VC1.12.5) VH: EVQLVESGGGLVQPGGSLRLSCAASGFTFSDSDIHWVRQAPGKGLEWVAWISPYVGFTDYADSVKGRFTISADTSKNTAYLQMNSLRAEDTAVYYCARLFDVIFDYWGQGTLVTVSS VL: DIQMTQSPSSLSASVGDRVTITCRASQDVSTAVAWYQQKPGKAPKLLIYSASFLYSGVPSRFSGSGSGTDFTLTISSLQPEDFATYYCQQSYTTPTTFGQGTKVEIK	28.1
VC1.12.2 (antibody, V domains shown, also called clone VC1.12.2) VH: EVQLVESGGGLVQPGGSLRLSCAASGFTFSDSDIHWVRQAPGKGLEWVAWISPYVGFTDYADSVKGRFTISADTSKNTAYLQMNSLRAEDTAVYYCARLFDVIFDYWGQGTLVTVSS VL: DIQMTQSPSSLSASVGDRVTITCRASQDVSTAVAWYQQKPGKAPKLLIYSASFLYSGVPSRFSGSGSGTDFTLTISSLQPEDFATYYCQQSYWTPLTFGQGTKVEIK	25.9
VC1.12.4 (antibody, V domains shown, also called clone VC1.12.4) VH: EVQLVESGGGLVQPGGSLRLSCAASGFTFSDSDIHWVRQAPGKGLEWVAWISPYVGFTDYADSVKGRFTISADTSKNTAYLQMNSLRAEDTAVYYCARLFDVIFDYWGQGTLVTVSS VL: DIQMTQSPSSLSASVGDRVTITCRASQDVSTAVAWYQQKPGKAPKLLIYSASFLYSGVPSRFSGSGSGTDFTLTISSLQPEDFATYYCQQSYTSPTTFGQGTKVEIK	7.7

So what does the record say about IC50 for VC1.12.3 (antibody, V domains shown, also called clone VC1.12.3) VH: EVQLVESGGGLVQPGGSLRLSCAASGFTFSDSDIHWVRQAPGKGLEWVAWISPYVGFTDYADSVKGRFTISADTSKNTAYLQMNSLRAEDTAVYYCARLFDVIFDYWGQGTLVTVSS VL: DIQMTQSPSSLSASVGDRVTITCRASQDVSTAVAWYQQKPGKAPKLLIYSASFLYSGVPSRFSGSGSGTDFTLTISSLQPEDFATYYCQQTYAIPPTFGQGTKVEIK ?
23

Bench note: what IC50 did VC1.12.9 (antibody, V domains shown, also called clone VC1.12.9) VH: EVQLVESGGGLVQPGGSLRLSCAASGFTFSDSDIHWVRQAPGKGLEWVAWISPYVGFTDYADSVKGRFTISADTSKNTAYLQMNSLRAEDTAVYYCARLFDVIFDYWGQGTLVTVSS VL: DIQMTQSPSSLSASVGDRVTITCRASQDVSTAVAWYQQKPGKAPKLLIYSASFLYSGVPSRFSGSGSGTDFTLTISSLQPEDFATYYCQQSYTIPPTFGQGTKVEIK show?
4.8

Attribution: patent US20110143428A1
